- tgt: RSV prefusion F (preF, DS-Cav1) (Respiratory syncytial virus)
- assay summary: BLI, IgG on sensor, 100 nM antigen
quantity name: Kd (nM)
Please reply with the bare figure in nM and do not write the unit itself.

ADI-41277 (antibody, V domains shown) VH: QVQLQESGPGLVKPSGTLSLTCAVSGGSITGRNWWSWVRQPPGKELERIGEIYHGGSTEYNPSLKGRVTISVDKSKNQFSLRLNSVTAADTAVYYCARVAHYDSNGYYIGYFDLWGRGTLVTVSS VL: EIVLTQSPPSLSASVGDRVTITCRASQSISIYLNWYQQKPGKAPKLLIFAASSLQSGVPLRFSGSGSGTDFTLTISSLQPEDFATYYCHQSYSAPWTFGQGTKVDIK; 3.6

Next binder, Kd to be filled in.
Just so you know, measured Kd for ADI-41342 (antibody, V domains shown) VH: QVQLVQSGAEVKKPGSSVKVSCKASGGTLTSYGVSWVRQAPGQGLEWMGGIIPIFGTVDYAQKFQGRVTITADEPTSTAYMELSSLTSDDTAVYYCARDPWVSGPVEFYYYFDVWGRGTLVTVSS VL: DIVLTESPATLSLSPGERATLSCRASQSINNRYLAWYQQKPGQAPRLLIFGASSRATGIPDRFSGSGSGTDFTLTISRLEPEDFAVYYCQQYGSTPPTFGQGTKVEIK came out at 3.99

All values here come from patent US20260258115A1.
